Origin of measurements: patent US20170166631A1

Could you please report measured pEC50 for the items listed next?
# experimentalSystem: T1, HD49 (huntingtin exon 1 protein with 49 polyQ repeats after cleavage of the GST tag; aggregation reaction) (human, UniProt P42858 1-88)
# T1 chain: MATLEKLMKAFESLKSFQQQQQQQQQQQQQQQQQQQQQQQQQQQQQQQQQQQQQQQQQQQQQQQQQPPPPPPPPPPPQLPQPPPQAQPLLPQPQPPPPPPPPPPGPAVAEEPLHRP
# protocolDetails: ELISA
Lab note: report pEC50 as minus log10 of the concentration in molar units, number only.

The reported value for NI-302.52C9 (antibody, V domains shown) VH: EVQLVQSGGGLVQPGGSLRLSCAGSGFTVSDTYMSWVRQAPGKGLEWVSGIHAGGETYYADSVKGRFTISRDNSKNTLYLQMNRLTPEDTAVFYCARHYYGNDDDTDYWGQGTLVTVSS VL: DVVMTQSPLSLPVTPGEPASISCRSSQSLLHSNGYNYLDWYVQKPGQSPQLLIYLGSTRASGVPDRFSGSGSGTDFTLKISRVEAEDVGVYYCLQAQQIPWTFGQGTKVEIK in terms of pEC50 is 7.52

The reported value for NI-302.11H6 (antibody, V domains shown) VH: EVQLVQSGAVMKKPGDSVRVSCRASTYSFSTYSFTWVRQVPGQGLEWMGWISAYNGHTNYVDSFQGRLTLTTDTSASTAYMELRSLRSDDTAIYYCAAVDTTYYYYGMDVWGQGTLVTVSS VL: QTVVTQEPTFSVSPGGTVTLTCALRFGSVSSSYYPSWFQQTPGQAPRTLIYSTNTRSSGVPARFSGSILGNKAALTIAGAQANDEADYYCVLYMGSGIGVFGGGTKLTVL in terms of pEC50 is 9.70

The reported value for NI-302.22H9 (antibody, V domains shown) VH: EVQLVESGGGLVHPWGSLRVSCAASGFSVSNYAITWVRQAPGKGLEYISVIYRDGRTYYGDSVRGRFTISRDDSKNTIYLQMNSLRFEDTAVYYCARAHGQYYYGVDVWGQGTTVTVSS VL: DVVMTQSPLSLSVSPGEPASISCRSSQSLLHSNGYNYLDWYRQKPGQSPQLLIYLNSNRASGVPDRFSGSGSGTEFTLTISRVEAEDVGVYYCMQSLQTFTFGGGTKVEIK in terms of pEC50 is 7.66
